target: T1, RSV F ectodomain stabilized in the postfusion conformation (F ΔFP), subtype A (Respiratory syncytial virus subtype A, UniProt P03420 26-109; P03420 147-524); assay: BLI, IgG on AHQ sensor, 100 nM antigen
T1 construct: extracellular domain; trimer; furin-cleaved; also called Postfusion subtype A
pKd: −log10 of the molar value.
Measured pKd values are reported for all entries that follow.
Observed Property: pKd

[[record]]
binder = "ADI-14512 (antibody, V domains shown, full-length IgG (yeast-expressed); also called Antibody Number 73; Ab# 73) VH: EVQLVESGAEVKKPGSSVKVSCKVVGGSFSNYGISWVRQAPGQGPEWMGGIIPAFKTAKYAKKFEDRVTITADESTSTAYMEVSGLRSDDTALYYCARPERDFGHLKWLRSPFDYWGQGTLVTVSS VL: ETTLTQSPATLSVSPGERVTLSCRASQGVSINLAWYQQKPGQAPRLLIYGASTRATDIPARFSGSGSGTDFTLTISSLQSEDFAVYYCQQYNDWPPQLTFGPGTKVEIK"
recorded_result = 8.57

[[record]]
binder = "ADI-14446 (antibody, V domains shown, full-length IgG (yeast-expressed); also called Antibody Number 9; Ab# 9) VH: QVQLVQSGAEVKKPGSSVKVSCEASGDTFTSYAVIWVRQTPGQGLEFMGSIIPIFQTINYAPKFQGRVTLSADGSTSTVFMELRNLRSEDTAIYFCATKRYCTSPSCHGLWYFNLWGRGTMVTVSS VL: ETTLTQSPISLSVTPGEPASISCRSSKSLLDSDDGNTYLDWYLQKPGQSPQILIYMLSYRASGVPDRFSGSGSGTDFTLKISRVEAEDVGVYYCMQRIEYPYTFGQGTKVEIK"
recorded_result = 9.67

[[record]]
binder = "ADI-14452 (antibody, V domains shown, full-length IgG (yeast-expressed); also called Antibody Number 15; Ab# 15) VH: QVQLVQSGAEVKKPGSSVKVSCEASGDTFTSYAVIWVRQAPGQGLEWMGSIIPIFQTINYAPKFQGRVTLSADGSTRTVYMELGSLRSEDTAIYFCATKRYCTSPSCHGLWYFNLWGRGTLVTVSS VL: DIVMTQSPLSLPVTPGEPASISCRSSKSLLDSDDGNTYLDWYLQKPGQSPQILIYMLSHRASGVPDRFSGSGSGTDFTLKISRVEAEDVGVYYCMQRVEYPYSFGQGTKVEIK"
recorded_result = 9.66

